These entries and their values trace back to ChEMBL document CHEMBL1157539.

Test system: Plasmodium falciparum
Assay: GSK_TCMDC: Inhibition of Plasmodium falciparum 3D7 in whole erythrocytes, using parasite LDH activity as an index of growth.
Type: functional, organism-based
Settings: Plasmodium falciparum, 3D7
Would you mind telling me the reported XC50 of each entry?
Number only, in nM; omit the unit.

Problem: # value lookup — system Plasmodium falciparum, readout XC50, item `Cc1ccc(NC(=O)c2ccc3nccnc3c2)cc1OC1CCN(Cc2ccc(F)cc2)CC1`
Result: 1010

Problem: `CON(C)C(=O)[C@@H](CCCCNC(=O)OCc1ccccc1)NC(=O)OC(C)(C)C` ?
Result: 195

Problem: Here is the next compound: N#Cc1ccc(C=CC(=O)NC2CCC(CCN3CCc4ccc(-c5cnccn5)cc4CC3)CC2)cc1 (centres undefined)
Result: 613

Problem: Entry `CN(c1cc(NC(=O)c2ccc(F)cc2)ccn1)C1CCN(Cc2cccc(O)c2)CC1` please
Result: 922

Problem: Consider next the compound `CCOc1ccc(NC(C)=O)c(O)c1` in the same way.
Result: 843

Problem: Item: `Cc1cccc(OCC2CCN(c3ncc(C(=O)NC4CC4)cc3Cl)CC2)c1`
Result: 1330

Problem: Moving on to `CCc1c(C)c2ccc3c(c2oc1=O)CN(CCc1ccc(F)cc1)CO3`
Result: 1230

Problem: Same read-out for `N=C(N)Nc1ccc(CCc2ccc(NC(=N)N)cc2)cc1` ?
Result: 289

Problem: Try this compound next: `N=C(N)NN=Cc1c2ccc(Cl)cc2c(Cl)c2ccc(Cl)cc12`
Result: 958

Problem: Same read-out for NCC1CCCN1Cc1ccc(-c2ccc(-c3nc4ccccc4[nH]3)s2)cc1 (centres undefined) ?
Result: 934

Problem: Ok, now `O=[N+]([O-])c1c(O)nc2c(c1O)CCC2`
Result: 1050

Problem: Next record, please: `COc1ccc(CNC2CCN(C)CC2)cc1-c1ccc(S(=O)(=O)NC2CCC2)s1`
Result: 733

Problem: Can you handle CN(C)c1ccc(CN2CCCC(CNC(=O)c3ccc(-c4cccc(C(F)(F)F)c4)s3)C2)cc1 (centres undefined) next?
Result: 1200

Problem: Likewise for `O=c1cc(NCCCNCc2[nH]c3cc(Cl)cc(Cl)c3c2Cn2cccn2)[nH]c2ccccc12` ?
Result: 972

Problem: How about CCC1CCc2cc(N)cc(-c3nc4c(c(C)nn4CC)c(=O)[nH]3)c2O1 (centres undefined) ?
Result: 1120

Problem: What about `O=C(Nc1cccc(Cl)c1)N(CCCn1ccnc1)Cc1csc(-c2ccc(CNCc3ccccc3)cc2)n1` ?
Result: 538

Problem: Subsequent entry: COc1ccc2nccc([C@@H](O)CN3CCC(NCc4nc5c(cc4Cl)SCC(=O)N5)C(F)C3)c2c1 (some centres undefined)
Result: 505

Problem: // next record `O=C(Cc1cn(-c2ccccc2)nc1-c1ccc(Cl)cc1)Nc1nccs1`
Result: 1200

Problem: Same question for `CCCCN(CCCC)/C(=N/c1cccc(Cl)c1Cl)Nc1ccc(C#N)cc1O` please.
Result: 853

Problem: Follow-up entry: `Cc1cccc2nc(-c3cccc(-c4cccc(NC(=O)Cc5ccc[n+]([O-])c5)c4)c3)[nH]c12`
Result: 635

Problem: What about `Fc1ccc2[nH]c(-c3ccc(-c4ccc(CN5CCC(CCN6CCCCC6)CC5)cc4)cc3)nc2c1` ?
Result: 129

Problem: Do the same for COC(=O)C(Cc1ccccc1)C(CSCc1ccc(OC)cc1)C(=O)N[C@@H](C(=O)OC(C)(C)C)c1ccc(C(C)(C)C)cc1 (some centres undefined) please
Result: 1030

Problem: Next compound: `CC(=O)Nc1cccc(-c2cn(-c3ccc(OCc4cccc(F)c4)c(Cl)c3)c3ncncc23)c1`
Result: 70.9

Problem: And `Cc1ccc2[nH]c(-c3ccc(C=CC(=O)NC4CCN(Cc5ccccc5)CC4)cc3)nc2c1` ?
Result: 684

Problem: Moving on to the next compound: `N=C(Nc1nc(-c2ccccn2)cc2ccccc12)c1cccc(Cl)c1`
Result: 309

Problem: Proceed to `NC(=O)c1c(Cl)nc2ccccc2c1Cl`
Result: 960

Problem: Try the compound O=C(NCCc1ccc(Cl)c(Cl)c1)C1CCCN(C(=O)c2ccc(O)c(-c3ccc(Cl)c(Cl)c3)c2)C1 (centres undefined)
Result: 780

Problem: Could you do the same for `CCN(CC)CCN(Cc1ccc(-c2ccc(C(F)(F)F)cc2)cc1)C(=O)Cn1c(CCc2ccc(F)c(F)c2F)nc(=O)c2ccc(F)cc21` , please?
Result: 736

Problem: Again, but for `CC(C)(C)c1ccc(/C=C/C(=O)NCCCCCN2CCC(c3c[nH]c4ccccc34)CC2)cc1`
Result: 1090

Problem: Quick one: `CC(C)NCc1ccc(-c2cccc(NC(=O)c3ccc(C#N)cc3)c2)cc1`
Result: 740

Problem: Again, but for Cc1cc(C(=O)Nc2ccc3c(ccn3C3CCCN(Cc4ccc(C(F)(F)F)cc4F)CC3)c2)no1 (centres undefined)
Result: 765

Problem: And for `Cn1ncc2c3c(CCN4CCC(NCc5cc6c(cn5)OCCO6)CC4)c(Cl)cnc3ccc21` ?
Result: 775

Problem: Repeat for the following compound: `COc1ccc(-c2ccc(NC(=O)c3ccc(C#N)cc3)cc2)cc1CN1CCCC1`
Result: 873

Problem: Proceed to `O=C(/C=C/c1ccc(Cl)c(Cl)c1)NCCCCCN1CCC(NC(=O)c2ccc(F)cc2)CC1`
Result: 706

Problem: Moving on to CCCC(C)n1ccc2c3c(N)nc(N)nc3ccc21 (centres undefined)
Result: 47.6

Problem: Do the same for `CC(C)(C)c1ccc(OCCCON2C(N)=NC(N)=NC2(C)C)cc1` please
Result: 3.2

Problem: What about this compound? `CNCCNc1nccc(N2CCc3ncnc(Nc4ccc(OCc5cccc(F)c5)c(Cl)c4)c3C2)n1`
Result: 197

Problem: One more compound: Cc1cccc(Nc2nccc(NCC(O)c3cccc(C(F)(F)F)c3)n2)c1 (centres undefined)
Result: 514

Problem: Please do the same for `O=C(NCc1cccc2ccccc12)c1ccc(CNC2CCN(Cc3ccccc3)CC2)cc1` as well.
Result: 838

----------
Test system: Plasmodium falciparum
Assay: GSK_TCMDC: Inhibition of Plasmodium falciparum 3D7 in whole erythrocytes, using parasite LDH activity as an index of growth.
Type: functional, organism-based
Conditions: Plasmodium falciparum, 3D7
measured-parameter: XC50

Problem: State the recorded XC50 for this entry: `CCOc1ccc(-c2nc(NC(=O)CS(=O)(=O)c3ccccc3)sc2C)cc1`
Result: 510 nM

Problem: Would you kindly repeat that for `Cn1nc(-c2ccccc2F)c2cc(C(=O)Nc3cccnc3)sc21` ?
Result: 810 nM

Problem: Would you mind doing `Cc1cc(C(=O)Nc2ccc(-c3ccccc3)cc2)no1` as well?
Result: 694 nM

Problem: Now consider `Cc1ccc(NC(=O)c2ccc(CN3CCCN(Cc4cccc(O)c4)CC3)cc2)cc1` .
Result: 743 nM

Problem: Note, next up: CC1(C)N=C(N)N=C(N)N1OCC1COc2ccccc2O1 (stereo not given)
Result: 35 nM

Problem: Moving on to the next compound: `CN(C)Cc1cccc(-c2cc3c(-c4cnn(C)c4)c(Cl)cnc3[nH]2)c1`
Result: 905 nM

Problem: Next compound: `Cc1ccc(CNC(=O)c2cc3c(=O)n4ccccc4nc3n(CCCN3CCOCC3)c2=N)cc1`
Result: 1090 nM

Problem: Then what about the compound `COc1cccc(C(=O)Nc2ccc(-c3nc4ccccc4[nH]3)cc2)c1` ?
Result: 802 nM

Problem: Same question for `N=C(N)NN=Cc1cc2ccccc2c2ccccc12` please.
Result: 180 nM

Problem: Also `NC(=O)c1ccc(NCC(=O)Nc2cccc(-c3cccc(-c4nc5cc(F)ccc5[nH]4)c3)c2)cc1` ?
Result: 867 nM

----------
System: Plasmodium falciparum
Test: GSK_TCMDC: Inhibition of Plasmodium falciparum 3D7 in whole erythrocytes, using parasite LDH activity as an index of growth.
Assay type: functional, organism-based
Details: Plasmodium falciparum, 3D7
measured-parameter: XC50 (µM)
Express the result in µM but write the number alone.

Problem: Field request: XC50 | item: `O=S(=O)(NCCN1CCCC1)c1ccc(-c2ccc(CNCc3ccccc3)cc2)cc1F`
Result: 1.29

Problem: Another: `O=C(NCc1cccc(Cl)c1)c1ccc(CNC2CCN(Cc3ccccc3)CC2)cc1`
Result: 0.884

Problem: Subsequent entry: O=C(CCC1CCCC1)N(Cc1ccc(-c2ccc(CNCCc3ccccn3)cc2)cc1)CC1CCCCN1 (centres undefined)
Result: 1.15

Problem: Can you handle `CCCCOc1ccc(/C=C/c2ccc(-c3c(C)[nH]c(C)c(Cl)c3=O)s2)cc1` next?
Result: 0.395

Problem: // same read-out, input: CC(Cc1ccc(Oc2ccccc2)cc1)NCC(O)c1cccc(C(F)(F)F)c1 (centres undefined)
Result: 0.674

Problem: Request: `Cc1[nH]c2ccc(-c3ccccc3)cc2c(=O)c1Br`
Result: 0.162

Problem: // next record `Cc1nnc2c(NC(=O)NC3CCCC3)cc3ccc(-c4cccc(CN5CCN(C)CC5)c4)cc3n12`
Result: 0.917

Problem: Quick one: `CN1CCN(c2ccc(-c3cc(-c4ccncc4)c(-c4ccc(Cl)c(O)c4)o3)cc2)CC1`
Result: 0.737

Problem: Same question, `Cc1noc(C)c1-c1cccc(CNCc2ccc(-c3cccc(-c4nc5ccccc5[nH]4)c3)cc2)c1` this time
Result: 0.569
